- EXPERIMENTAL_TARGET: Human EGF receptor tyrosine kinase (Homo sapiens, UniProt P00533)
- Construct: isolated from A431 human epidermoid carcinoma cells which overexpress EGF receptor; endogenous in cells; host or cells: A431 human epidermoid carcinoma cells; purified from the lysate on wheat germ agglutinin sepharose
- Sequence (P00533 25-1210): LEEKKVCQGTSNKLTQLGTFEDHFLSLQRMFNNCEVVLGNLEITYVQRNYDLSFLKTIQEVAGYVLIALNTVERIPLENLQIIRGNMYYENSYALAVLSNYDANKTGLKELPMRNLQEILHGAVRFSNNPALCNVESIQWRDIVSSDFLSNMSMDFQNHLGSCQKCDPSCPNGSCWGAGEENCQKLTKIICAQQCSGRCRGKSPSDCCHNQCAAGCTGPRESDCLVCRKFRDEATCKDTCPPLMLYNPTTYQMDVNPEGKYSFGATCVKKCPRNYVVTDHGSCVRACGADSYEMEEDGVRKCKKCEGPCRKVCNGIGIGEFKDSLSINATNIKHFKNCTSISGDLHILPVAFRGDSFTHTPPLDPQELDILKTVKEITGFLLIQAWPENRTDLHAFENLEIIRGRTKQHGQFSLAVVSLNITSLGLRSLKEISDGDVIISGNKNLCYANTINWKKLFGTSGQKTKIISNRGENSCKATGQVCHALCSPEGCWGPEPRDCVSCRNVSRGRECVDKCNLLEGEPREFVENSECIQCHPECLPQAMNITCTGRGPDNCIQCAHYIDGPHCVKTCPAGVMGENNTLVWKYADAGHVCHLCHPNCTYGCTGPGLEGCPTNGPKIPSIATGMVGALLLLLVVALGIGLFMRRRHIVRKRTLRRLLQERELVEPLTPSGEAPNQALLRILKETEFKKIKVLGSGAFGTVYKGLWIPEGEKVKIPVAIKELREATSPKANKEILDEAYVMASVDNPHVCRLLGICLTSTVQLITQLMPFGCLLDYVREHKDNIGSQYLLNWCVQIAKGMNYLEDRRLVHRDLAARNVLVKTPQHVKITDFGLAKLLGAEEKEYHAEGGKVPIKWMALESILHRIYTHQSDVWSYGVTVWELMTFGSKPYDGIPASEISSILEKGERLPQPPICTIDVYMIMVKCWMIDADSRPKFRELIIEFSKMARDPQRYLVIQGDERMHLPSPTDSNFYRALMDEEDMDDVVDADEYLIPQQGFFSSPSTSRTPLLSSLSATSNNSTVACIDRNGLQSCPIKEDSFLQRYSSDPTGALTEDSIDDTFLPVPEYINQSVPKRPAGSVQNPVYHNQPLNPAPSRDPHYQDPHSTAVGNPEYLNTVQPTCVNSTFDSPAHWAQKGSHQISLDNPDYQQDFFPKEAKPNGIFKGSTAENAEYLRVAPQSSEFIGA
- ASSAY_DETAILS: EGF receptor tyrosine kinase inhibition (phosphorylation of PLC-gamma 1 derived peptide)
- Type: biochemical
- TEST_CONTEXT: Table 1, values in nM; read-out: EGF Receptor Tyrosine Kinase Inhibition IC50
Each record here notes measured IC50.
VALUE_TYPE: IC50 (nM)

# COMPOUND, VALUE_TYPE, UNITS_OF_MEASURE, RESULT
records = [
    ("Brc1cccc(Nc2ncnc3[nH]cnc23)c1", "IC50", "nM", 55),
    ("C[C@@H](Nc1ncnc2ccncc12)c1ccccc1", "IC50", "nM", 590),
    ("Nc1cc2ncnc(Nc3ccc(Br)cc3)c2cn1", "IC50", "nM", 94),
    ("Nc1cc2ncnc(Nc3ccccc3)c2cn1 [Example 13, 7-Amino-4-anilinopyrido[4,3-d]pyrimidine]", "IC50", "nM", 250),
    ("CC(=O)Nc1cc2ncnc(Nc3cccc(Br)c3)c2cn1", "IC50", "nM", 29),
    ("COc1ccc(Nc2ncnc3cc(N)ncc23)cc1", "IC50", "nM", 670),
    ("c1ccc(CNc2ncnc3ccsc23)cc1 [Example 72, 4-Benzylaminothieno[3,2-d]pyrimidine]", "IC50", "nM", 35),
    ("CNc1cc2ncnc(N(C)c3cccc(Br)c3)c2cn1", "IC50", "nM", 3.1),
    ("Nc1cc2ncnc(Nc3cccc(O)c3)c2cn1", "IC50", "nM", 70),
]
